These data points were gathered from paper PMC5540273.

- System: ASK1
- Construct: gene MAP3K5
- protocol-conditions: concentration: 1 μM, replicates: in singlicate; n = 1;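 further: KINOMEscan kinase panel screen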
recorded-metric: %Inh (%)
The figure you give is taken to be in %; do not add the unit.

q: Query: %Inh; subject: Nc1nc(N)c2nc(-c3ccccc3)[nH]c2n1 [SKF-12778]
a: 7

q: Query: %Inh; subject: COc1cc2ncn(-c3cc(OCc4ccncc4Br)c(C(N)=O)s3)c2cc1OC [GW854278]
a: 6

q: Query: %Inh; subject: COc1cc(Nc2nccc(N3CCC(NC(=O)C4COc5ccccc5O4)C3)n2)cc(OC)c1OC (stereo not drawn) [GSK1379761]
a: 0

q: Query: %Inh; subject: CCc1ccc(-c2ccc3c(c2)-c2nn(C)cc2S(=O)(=O)N3C)cc1
a: 0

q: Query: %Inh; subject: CCC(=O)c1c(-c2ccccc2)c2cc(Cl)ccc2c(=O)n1Cc1cc(S(C)(=O)=O)n(CC(N)=O)n1
a: 0

q: Query: %Inh; subject: COc1cccc(-n2cnc3c(N)ncnc32)c1 [SKF-97416]
a: 4

q: Query: %Inh; subject: CC(C)(C)c1ccc(C(=O)Nc2cn3cc(-c4ccccc4)ccc3n2)cc1
a: 40

q: Query: %Inh; subject: CN1C(=O)C(Nc2ccccc2)=C(c2ccccc2)C1=O [SB-300079]
a: 0

q: Query: %Inh; subject: O=C(Nc1n[nH]c2nc(-c3ccccc3)c(Cl)cc12)C1CC1 [SB-734909]
a: 0

----------
- System: CLK4
- protocol-conditions: concentration: 1 μM, replicates: in singlicate; n = 1
recorded-metric: %Inh

Consider the worked cases shown below.
q: Query: %Inh; subject: CCc1nc(-c2cccc(C)c2)c(-c2ccncc2)s1
a: 0%

q: Query: %Inh; subject: CCS(=O)(=O)c1ccc(OC)c(Nc2ncc(-c3ccc(F)cc3)o2)c1.Cl
a: 23%

q: Query: %Inh; subject: Cn1c(=O)c(F)c(Nc2ccc(I)cc2F)c2c(=O)n(OC[C@H](O)CO)cnc21
a: 0%

q: Query: %Inh; subject: Nc1nc(-c2ccccc2F)c(-c2ccnc3ccccc23)s1
a: 7%

***
q: Query: %Inh; subject: CN(C)c1cc(-c2ccc3c(N)n[nH]c3c2)nc(N)n1
a: 51%

q: Query: %Inh; subject: Nc1ncnc2c1ncn2-c1cccc2ccccc12
a: 0%

q: Query: %Inh; subject: COC(=O)c1c(-c2ccccc2)c2cc(Br)ccc2c(=O)n1Cc1ccc(NC(=O)CCC(=O)O)cc1
a: 17%

q: Query: %Inh; subject: Cl.c1ccc(Cn2cnc3cc(Nc4ncnc5ccccc45)ccc32)cc1
a: 20%

q: Query: %Inh; subject: Cc1nn2c(=O)cc(N3CCOCC3)nc2n1Cc1cccc(Cl)c1Cl
a: 22%

q: Query: %Inh; subject: CC(C)(C)c1ccc(C(=O)Nc2cn3cc(-c4ccccc4)ccc3n2)cc1
a: 7%

q: Query: %Inh; subject: Cc1cccc(-c2nc(Nc3ccc4c(cnn4C)c3)c3ccccc3n2)n1
a: 0%

q: Query: %Inh; subject: COc1cc2ncn(-c3cc(OCc4ccncc4Br)c(C(N)=O)s3)c2cc1OC
a: 0%

q: Query: %Inh; subject: CCS(=O)c1ccc(-c2coc3ccc(-c4nnc(C)o4)cc23)cc1 (stereo not shown)
a: 5%

q: Query: %Inh; subject: Cc1ccccc1COc1cc(-n2cnc3cc(Cl)ccc32)sc1C(N)=O
a: 6%

q: Query: %Inh; subject: Cc1cccc(-c2cc(-c3c[nH]nc3-c3ccccn3)ccn2)c1
a: 6%

----------
- Tested on: CSF1R
- protocol-conditions: concentration: 1 μM, replicates: in singlicate; n = 1
Note to self: class labels come from recorded %Inh, ranges listed here: small value: < 4%; mid value: ≥ 4% and < 20%; large value: ≥ 20%

Reference set (8 entries):
q: Lab log: CCS(=O)(=O)c1ccc(OC)c(Nc2ncc(-c3ccc(F)cc3)o2)c1.Cl — assign %Inh category
a: small value

q: Lab log: Cc1c(Cn2c(C)nn3c(=O)cc(N4CCO[C@H](C)C4)nc23)cccc1C(F)(F)F — assign %Inh category
a: large value

q: Lab log: Nc1n[nH]c2ncc(-c3ccccc3)cc12 — assign %Inh category
a: large value

q: Lab log: C[C@@H]1CC[C@H](C(=O)NC2CCCCC2)CN1c1cc(-c2ccc3c(N)n[nH]c3c2)nc(N)n1 — assign %Inh category
a: large value

q: Lab log: CCC(=O)c1c(-c2ccccc2)c2cc(Cl)ccc2c(=O)n1Cc1ccc(C(=O)O)cc1 — assign %Inh category
a: small value

q: Lab log: COc1cc2ncn(-c3cc(OCc4ccncc4)c(C(N)=O)s3)c2cc1OC — assign %Inh category
a: mid value

q: Lab log: Cc1nnc(-c2ccc(C)c(-c3ccc(C(=O)O)cc3)c2)o1 — assign %Inh category
a: small value

q: Lab log: FC(F)(F)c1ccc(-c2ncn(CCCN3CCOCC3)c2-c2ccncc2)cc1 — assign %Inh category
a: large value

***
q: Lab log: Cc1nn2c(=O)cc(N3CCOCC3)nc2n1Cc1cccc(Cl)c1Cl — assign %Inh category
a: mid value

q: Lab log: O=C(NCc1cccs1)c1cc(C(=O)c2c(Cl)cccc2Cl)c[nH]1 — assign %Inh category
a: mid value

q: Lab log: Cc1cccc(-c2nc(Nc3ccc4c(cnn4C)c3)c3ccccc3n2)n1 — assign %Inh category
a: large value

q: Lab log: COc1ccc(-n2cnc3c(N)ncnc32)cc1 — assign %Inh category
a: small value

q: Lab log: CCC(=O)c1c(-c2ccccc2)c2cc(Cl)ccc2c(=O)n1Cc1cc(S(C)(=O)=O)n(CCC(C)(C)O)n1 — assign %Inh category
a: mid value

q: Lab log: O=C(Nc1n[nH]c2cc(-c3ccccc3F)ccc12)C1CC1 — assign %Inh category
a: small value

q: Lab log: COc1ccc(-c2coc3ccc(-c4nnc(SCc5cccc(C#N)c5)o4)cc23)cc1 — assign %Inh category
a: small value

q: Lab log: Cc1nc(N(C)[C@H]2CN(C(=O)CC#N)CC[C@H]2C)c2cc[nH]c2n1 — assign %Inh category
a: mid value

q: Lab log: Cc1ccc(Oc2ccc(Nc3ncnc4cc[nH]c34)cc2C)cn1 — assign %Inh category
a: mid value

----------
- Tested on: ACVRL1
- protocol-conditions: concentration: 1 μM, replicates: in singlicate; n = 1
recorded-metric: %Inh

Consider the worked cases shown below.
q: Query: %Inh; subject: COc1ccc(-c2cc3c(C)nc(N)nc3n([C@H]3CC[C@H](OCCO)CC3)c2=O)cn1
a: 0%

q: Query: %Inh; subject: COc1cc(Nc2nccc(N3CCC(NC(=O)C(C)c4ccc(Cl)cc4)C3)n2)cc(OC)c1OC (stereo not drawn) [GSK1379757]
a: 0%

q: Query: %Inh; subject: O=C(Nc1n[nH]c2nc(-c3ccccc3)c(Cl)cc12)C1CC1 [SB-734909]
a: 0%

q: Query: %Inh; subject: Nc1nccc2scc(-c3ccc4c(c3)CCN4C(=O)Cc3ccccc3)c12 [GSK2576924]
a: 0%

***
q: Query: %Inh; subject: Cc1nn2c(=O)cc(N3CCOCC3)nc2n1Cc1cccc(Cl)c1Cl [GSK2342769]
a: 42%

q: Query: %Inh; subject: COc1ccc(Nc2nccc(N3CCC(NS(=O)(=O)c4ccc(NC(C)=O)cc4)C3)n2)cc1 (stereo not drawn) [GSK1379729]
a: 8%

q: Query: %Inh; subject: Nc1ncnc2c1ncn2-c1cccc(F)c1 [SKF-97560]
a: 0%

q: Query: %Inh; subject: CN(C)c1cc(-c2ccc3c(N)n[nH]c3c2)nc(N)n1 [GSK2219329]
a: 0%

q: Query: %Inh; subject: Cc1ccc(Oc2ccc(Nc3ncnc4cc[nH]c34)cc2C)cn1
a: 0%

----------
- System: PIP5K1A
- protocol-conditions: concentration: 1 μM, replicates: in singlicate; n = 1
recorded-metric: %Inh
The number alone won't do; follow it with the unit.

q: Query: %Inh; subject: COc1cc(Nc2ccnc3ccc(C(F)(F)F)cc23)cc(OC)c1OC [GW577382]
a: 0%

q: Query: %Inh; subject: Cc1ccc(Oc2ccc(Nc3ncnc4cc[nH]c34)cc2C)cn1
a: 7%

q: Query: %Inh; subject: Nc1nccc2scc(-c3ccc4c(c3)CCN4C(=O)Cc3ccccc3)c12 [GSK2576924]
a: 3%

***
q: Query: %Inh; subject: FC(F)(F)c1ccc(-c2ncn(CCCN3CCOCC3)c2-c2ccncc2)cc1 [SB-217780]
a: 0%

q: Query: %Inh; subject: COc1cc2nccc(Nc3cccc(Oc4ccccc4)c3)c2cc1OC.Cl [GW284543]
a: 0%
